Below, each entry is listed alongside its reported PKC-theta IL2 pIC50.
Tested on: IL-2 secretion by human effector memory T cells (TEM)
run-description: Effector memory T cells IL-2 release assay (CD3/CD28 stimulation, HTRF IL-2 detection)
Format: cell-based
experimental-conditions: 24 h
Respond numerically, and do not add a unit to the figure.

Answered cases to consult:
>  <molecule>
C[C@H]1CN(c2cc(-c3ccnc4c3[C@@](C)(O)C(=O)N4)cc(C(F)(F)F)c2)CCN1 (single isomer, unassigned) [Example 81]

>  <PKC-theta IL2 pIC50>
6.7

$$$$
>  <molecule>
CC[C@H]1CN(c2cc(Cl)cc(-c3ccnc4c3[C@@](C)(OC)C(=O)N4)n2)CCN1 (single isomer, unassigned)

>  <PKC-theta IL2 pIC50>
7.1

$$$$
>  <molecule>
C[C@H]1NCCN(c2cc(C(F)(F)F)cc(-c3ccnc4c3C(C)(C)C(=O)N4)n2)[C@H]1C

>  <PKC-theta IL2 pIC50>
8.1

$$$$
>  <molecule>
C[C@H]1CN(c2cc(-c3ccnc4c3[C@@](C)(O)C(=O)N4)cc(C(F)(F)F)c2)CCN1 (single isomer, unassigned) [Example 82]

>  <PKC-theta IL2 pIC50>
5.4

$$$$

Turning now to a further record.
Could you share which PKC-theta IL2 pIC50 value was measured for CO[C@]1(C)C(=O)Nc2nccc(-c3cc(C(F)(F)F)cc(N4CCNC[C@H]4C)n3)c21 (single isomer, unassigned) ?
6.9

====

measurement-target: Recombinant human PKC-delta (His-tagged 345-676) (Homo sapiens, UniProt Q05655)
Construct: PKC-delta (His-tagged 345-676); His
Sequence (Q05655 345-676): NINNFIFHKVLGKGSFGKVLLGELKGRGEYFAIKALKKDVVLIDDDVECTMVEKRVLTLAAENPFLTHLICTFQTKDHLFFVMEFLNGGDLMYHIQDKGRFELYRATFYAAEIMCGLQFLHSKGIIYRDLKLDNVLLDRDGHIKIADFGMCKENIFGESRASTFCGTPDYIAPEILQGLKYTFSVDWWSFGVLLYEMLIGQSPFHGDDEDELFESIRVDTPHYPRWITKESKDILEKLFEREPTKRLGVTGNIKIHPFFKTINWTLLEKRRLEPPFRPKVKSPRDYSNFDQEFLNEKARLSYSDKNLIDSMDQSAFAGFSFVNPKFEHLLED
run-description: PKC-delta inhibition assay (HTRF KinEASE kit)
Type: biochemical
experimental-conditions: ratio, PKC-theta vs PKC-delta HTRF
measurement-type: PKC-theta/PKC-delta selectivity
Respond numerically, and do not add a unit to the figure.

>  <compound>
CC[C@]1(C)C(=O)Nc2nccc(-c3cc(Cl)cc(N4CCN[C@@H](C)C4)n3)c21 (single isomer, unassigned)

>  <recorded-result>
9

$$$$
>  <compound>
CC[C@H]1CN(c2cc(Cl)cc(-c3ccnc4c3C(C)(OC)C(=O)N4)n2)CCN1 (stereo partly shown)

>  <recorded-result>
8

$$$$
>  <compound>
C[C@@]1(O)C(=O)Nc2nccc(-c3cc(Cl)cc(N4CCNC(CC(F)(F)F)C4)n3)c21 (single isomer, unassigned)

>  <recorded-result>
16

$$$$

Turning now to a further record.
Could you share which PKC-theta/PKC-delta selectivity value was measured for CC[C@@]1(C)C(=O)Nc2nccc(-c3cc(C(F)(F)F)cc(N4CCNC[C@H]4C)n3)c21 (single isomer, unassigned) ?
30

====

measurement-target: Recombinant human PKC-theta (His-tagged 362-706) (Homo sapiens)
Construct: Recombinant human PKC-theta (His-tagged 362-706); His
Sequence (Q04759 362-706): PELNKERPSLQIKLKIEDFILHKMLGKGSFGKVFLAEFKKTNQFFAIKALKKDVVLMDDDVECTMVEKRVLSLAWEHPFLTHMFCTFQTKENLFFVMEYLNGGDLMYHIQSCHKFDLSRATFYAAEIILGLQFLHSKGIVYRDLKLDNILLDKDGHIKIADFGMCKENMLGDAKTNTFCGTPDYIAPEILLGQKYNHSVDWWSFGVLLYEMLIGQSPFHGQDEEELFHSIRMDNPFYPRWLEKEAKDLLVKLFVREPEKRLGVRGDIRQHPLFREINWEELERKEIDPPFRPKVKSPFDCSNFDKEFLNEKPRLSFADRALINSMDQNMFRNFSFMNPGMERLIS
run-description: PKC-theta inhibition assay (HTRF KinEASE kit)
Type: biochemical
experimental-conditions: ATP 6.5 μM; STK substrate 525 nM; binned A to H; read-out: PKC-theta HTRF pIC50 (binned) (converted)
Below, each entry is listed alongside its reported IC50.

Answered cases to consult:
>  <compound>
CC[C@H]1CN(c2cc(Cl)cc(-c3ccnc4c3C(O)(CC)C(=O)N4)n2)CCN1 (stereo partly shown)

>  <recorded-result>
3.16 to 10 nM

$$$$
>  <compound>
C[C@@H]1NCCN(c2cc(C(F)(F)F)cc(-c3ccnc4c3C(C)(C)C(=O)N4)n2)[C@@H]1C

>  <recorded-result>
3.16 to 10 nM

$$$$
>  <compound>
C[C@@H]1CNCCN1c1cc(C(F)(F)F)cc(-c2c(F)cnc3c2C(C)(C)C(=O)N3)n1

>  <recorded-result>
10 to 31.6 nM

$$$$

Turning now to a further record.
Could you share which IC50 value was measured for CC(F)(F)c1cc(-c2ccnc3c2C(C)(C)C(=O)N3)nc(N2CCCNCC2)c1 ?
3.16 to 10 nM
